Attribution: patent EP4570800A1

# experiment: Dynamic solubility in water, SGF, FaSSIF and FeSSIF
# conditions: pH value of the filtrate; SGF, 24 hours
Where a name gives a salt, the structure may show the parent alone.
measured.metric: pH

> print(dat)
                                   molecule  value
1  Cc1nc(N[C@H](C)c2cccc(S(F)(F)(F)(F)F)c2)c2cn(C3(CF)CC3)c(=O)cc2n1 [Crystal form A of ethanesulfonate salt]    1.5
2  Cc1nc(N[C@H](C)c2cccc(S(F)(F)(F)(F)F)c2)c2cn(C3(CF)CC3)c(=O)cc2n1 [Crystal form A of methanesulfonate salt]    1.6
3  Cc1nc(N[C@H](C)c2cccc(S(F)(F)(F)(F)F)c2)c2cn(C3(CF)CC3)c(=O)cc2n1 [Crystal form B of citrate salt]    2.4
4  Cc1nc(N[C@H](C)c2cccc(S(F)(F)(F)(F)F)c2)c2cn(C3(CF)CC3)c(=O)cc2n1 [Crystal form A of fumarate salt]    1.7
